- TEST_DESCRIPTION: Hygroscopicity study
- Format: physicochemical
- CONDITIONS_USED: 25° C./75%-RH for 5 days
MEASURE_NAME: Hygroscopic weight gain

> print(dat)
                                   compound  observed.measurement
1  O=C(Nc1cn2c(-c3ccc(CN4CCS(=O)(=O)CC4)cc3F)cccc2n1)C1CC1 [Crystal form C]                  6.1%
2  O=C(Nc1cn2c(-c3ccc(CN4CCS(=O)(=O)CC4)cc3F)cccc2n1)C1CC1 [Crystal form E]                  5.3%
3  O=C(Nc1cn2c(-c3ccc(CN4CCS(=O)(=O)CC4)cc3F)cccc2n1)C1CC1 [Crystal form D]                  8.1%
4  O=C(Nc1cn2c(-c3ccc(CN4CCS(=O)(=O)CC4)cc3F)cccc2n1)C1CC1 [Crystal form F]                  4.9%
5  O=C(Nc1cn2c(-c3ccc(CN4CCS(=O)(=O)CC4)cc3F)cccc2n1)C1CC1 [Crystal form A]                  2.4%

###

- TESTED_ON: UniProt:P52333
- Sequence (P52333 795-1124 limits assumed): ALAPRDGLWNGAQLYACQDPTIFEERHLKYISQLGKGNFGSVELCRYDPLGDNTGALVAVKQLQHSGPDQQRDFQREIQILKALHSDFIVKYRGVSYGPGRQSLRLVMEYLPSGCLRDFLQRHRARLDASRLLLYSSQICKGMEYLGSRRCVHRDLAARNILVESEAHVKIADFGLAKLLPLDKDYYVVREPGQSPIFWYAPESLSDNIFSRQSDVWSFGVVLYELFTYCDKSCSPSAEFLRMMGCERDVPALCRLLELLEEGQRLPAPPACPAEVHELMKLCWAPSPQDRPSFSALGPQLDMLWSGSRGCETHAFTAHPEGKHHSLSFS
MEASURE_NAME: IC50 (µM)

> print(dat)
                                   compound       tested.on  measure.name  unit.name  observed.measurement
1  O=C(Nc1cn2c(-c3ccc(CN4CCS(=O)(=O)CC4)cc3F)cccc2n1)C1CC1 [Crystal form A]  UniProt:P52333          IC50         µM                  5.52

###

- TESTED_ON: JAK1 (Homo sapiens, UniProt P23458)
- Sequence (P23458 866-1154 limits assumed): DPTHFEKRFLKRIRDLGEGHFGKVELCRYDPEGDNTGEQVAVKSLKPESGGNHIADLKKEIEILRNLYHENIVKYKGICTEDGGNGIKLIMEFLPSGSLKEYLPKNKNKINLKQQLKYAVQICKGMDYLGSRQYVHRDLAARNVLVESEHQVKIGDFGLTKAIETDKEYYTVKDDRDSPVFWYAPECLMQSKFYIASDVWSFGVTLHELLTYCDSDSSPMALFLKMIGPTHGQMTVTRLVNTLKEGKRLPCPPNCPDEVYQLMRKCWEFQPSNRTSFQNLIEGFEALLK
pIC50: −log10 of the molar value.
MEASURE_NAME: pIC50

> print(dat)
                                   compound                            tested.on  measure.name  observed.measurement
1  O=C(Nc1cn2c(-c3ccc(CN4CCS(=O)(=O)CC4)cc3F)cccc2n1)C1CC1 [Crystal form A]  JAK1 (Homo sapiens, UniProt P23458)         pIC50                  6.84
